System: Escherichia coli TOP10
protocolDescription: shrunken log2 fold change of peptide-encoding DNA abundance (4.5 h post-induction vs induction); higher = less antimicrobial activity (less host growth inhibition)
reportedConditions: time post-induction: 4.5 h; library: site-saturation at positions 5, 18, 19, 20
Please enter Criterion met where shrunken log2 fold change is greater than or equal to 0.1, and Criterion not met where it is lower.

-- ask Form field: shrunken log2 fold change at least 0.1? Entry: "RRIRRRPPRLPRPRPRPLMSPRP"
-- reply Criterion not met

-- ask Form field: shrunken log2 fold change at least 0.1? Entry: "RRIRERPPRLPRPRPRPVLQPRP"
-- reply Criterion not met

-- ask Form field: shrunken log2 fold change at least 0.1? Entry: "RRIRMRPPRLPRPRPRPHQHPRP"
-- reply Criterion not met

-- ask Form field: shrunken log2 fold change at least 0.1? Entry: "RRIRCRPPRLPRPRPRPASGPRP"
-- reply Criterion met

-- ask Form field: shrunken log2 fold change at least 0.1? Entry: "RRIRHRPPRLPRPRPRPADHPRP"
-- reply Criterion met

----------
Please provide measured shrunken log2 fold change for the entries that follow.
System: Escherichia coli TOP10;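 further: peptides expressed intracellularly from a pBAD plasmid library in pooled LB shake-flask culture, induced with 0.3% L-arabinose, DNA abundance read by NGS, three biological replicates, DESeq2 with apeglm shrinkage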
protocolDescription: shrunken log2 fold change of peptide-encoding DNA abundance (4.5 h post-induction vs induction); higher = less antimicrobial activity (less host growth inhibition)
reportedConditions: time post-induction: 4.5 h; library: site-saturation at positions 5, 18, 19, 20
A bare number is all that is needed in reply.

-- ask Any idea what shrunken log2 fold change was measured for "RRIRWRPPRLPRPRPRPHAKPRP" ?
-- reply 0.202

-- ask Any idea what shrunken log2 fold change was measured for "RRIRPRPPRLPRPRPRPTYIPRP" ?
-- reply -0.0167

-- ask Any idea what shrunken log2 fold change was measured for "RRIRIRPPRLPRPRPRPQESPRP" ?
-- reply -0.617

-- ask Any idea what shrunken log2 fold change was measured for "RRIRNRPPRLPRPRPRPTYDPRP" ?
-- reply -0.396

-- ask Any idea what shrunken log2 fold change was measured for "RRIRQRPPRLPRPRPRPIKGPRP" ?
-- reply -0.0145

-- ask Any idea what shrunken log2 fold change was measured for "RRIRHRPPRLPRPRPRPVNSPRP" ?
-- reply 0.158

-- ask Any idea what shrunken log2 fold change was measured for "RRIRTRPPRLPRPRPRPSAHPRP" ?
-- reply -0.229

-- ask Any idea what shrunken log2 fold change was measured for "RRIRGRPPRLPRPRPRPLNNPRP" ?
-- reply -0.109

-- ask Any idea what shrunken log2 fold change was measured for "RRIRFRPPRLPRPRPRPCRKPRP" ?
-- reply 0.0312

-- ask Any idea what shrunken log2 fold change was measured for "RRIRVRPPRLPRPRPRPHPMPRP" ?
-- reply -0.15

-- ask Any idea what shrunken log2 fold change was measured for "RRIRNRPPRLPRPRPRPGMFPRP" ?
-- reply -0.252

-- ask Any idea what shrunken log2 fold change was measured for "RRIRRRPPRLPRPRPRPYPSPRP" ?
-- reply -0.305

-- ask Any idea what shrunken log2 fold change was measured for "RRIRFRPPRLPRPRPRPQQWPRP" ?
-- reply -0.208

-- ask Any idea what shrunken log2 fold change was measured for "RRIRDRPPRLPRPRPRPNEIPRP" ?
-- reply -0.0208

-- ask Any idea what shrunken log2 fold change was measured for "RRIRDRPPRLPRPRPRPVTWPRP" ?
-- reply 0.0882

-- ask Any idea what shrunken log2 fold change was measured for "RRIRYRPPRLPRPRPRPFMWPRP" ?
-- reply -0.307

-- ask Any idea what shrunken log2 fold change was measured for "RRIRWRPPRLPRPRPRPCYWPRP" ?
-- reply -0.201

-- ask Any idea what shrunken log2 fold change was measured for "RRIRIRPPRLPRPRPRPCTHPRP" ?
-- reply -0.791

-- ask Any idea what shrunken log2 fold change was measured for "RRIRLRPPRLPRPRPRPDWDPRP" ?
-- reply -0.183

-- ask Any idea what shrunken log2 fold change was measured for "RRIRCRPPRLPRPRPRPWITPRP" ?
-- reply -1.47

-- ask Any idea what shrunken log2 fold change was measured for "RRIRHRPPRLPRPRPRPKWDPRP" ?
-- reply -0.00576

-- ask Any idea what shrunken log2 fold change was measured for "RRIRNRPPRLPRPRPRPVQHPRP" ?
-- reply -0.258

-- ask Any idea what shrunken log2 fold change was measured for "RRIRQRPPRLPRPRPRPLKSPRP" ?
-- reply 0.138

-- ask Any idea what shrunken log2 fold change was measured for "RRIRKRPPRLPRPRPRPEFMPRP" ?
-- reply 0.541

-- ask Any idea what shrunken log2 fold change was measured for "RRIRNRPPRLPRPRPRPRPRPRP" ?
-- reply 0.586

-- ask Any idea what shrunken log2 fold change was measured for "RRIRGRPPRLPRPRPRPVWCPRP" ?
-- reply 0.245

-- ask Any idea what shrunken log2 fold change was measured for "RRIRRRPPRLPRPRPRPDHYPRP" ?
-- reply -2.95

-- ask Any idea what shrunken log2 fold change was measured for "RRIRCRPPRLPRPRPRPCDVPRP" ?
-- reply -0.0285

-- ask Any idea what shrunken log2 fold change was measured for "RRIRHRPPRLPRPRPRPCCGPRP" ?
-- reply -0.114

-- ask Any idea what shrunken log2 fold change was measured for "RRIRLRPPRLPRPRPRPEKHPRP" ?
-- reply -0.262

-- ask Any idea what shrunken log2 fold change was measured for "RRIRQRPPRLPRPRPRPGNVPRP" ?
-- reply 0.0829

-- ask Any idea what shrunken log2 fold change was measured for "RRIRCRPPRLPRPRPRPRKAPRP" ?
-- reply 0.578

-- ask Any idea what shrunken log2 fold change was measured for "RRIRPRPPRLPRPRPRPAQGPRP" ?
-- reply 0.156

-- ask Any idea what shrunken log2 fold change was measured for "RRIRQRPPRLPRPRPRPLQIPRP" ?
-- reply 0.223

-- ask Any idea what shrunken log2 fold change was measured for "RRIRLRPPRLPRPRPRPLHHPRP" ?
-- reply -0.533
